Values compiled from ChEMBL document CHEMBL1667821.

Biological target: Galectin-3 (Homo sapiens, UniProt P17931)
Sequence (P17931 whole entry): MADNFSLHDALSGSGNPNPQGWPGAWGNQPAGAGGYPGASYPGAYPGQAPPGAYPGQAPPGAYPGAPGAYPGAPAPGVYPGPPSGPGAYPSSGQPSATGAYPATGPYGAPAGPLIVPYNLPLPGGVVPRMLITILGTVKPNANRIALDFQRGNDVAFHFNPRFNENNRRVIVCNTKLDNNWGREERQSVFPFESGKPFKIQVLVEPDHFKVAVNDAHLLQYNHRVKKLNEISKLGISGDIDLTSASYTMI
Test: Binding affinity to human galectin-3 by surface plasmon resonance method
Assign Activity to each entry below.

Query: Consider the molecule shown here: `OC[C@H]1O[C@@H](O[C@H]2C=C[C@@H](OCCCCCCCCCCCCS)O[C@@H]2CO)[C@H](O)[C@@H](O)[C@H]1O` What is its recorded Activity?
Reply: 5.1 a.u.

Query: Find the recorded Activity belonging to `OC[C@H]1O[C@@H](O[C@H]2[C@H](O)C[C@@H](OCCCCCCCCCCCCS)O[C@@H]2CO)[C@H](O)[C@@H](O)[C@H]1O` and report it.
Reply: 135 a.u.

Query: Could you share which Activity value was measured for OC[C@H]1OC(O[C@H]2[C@H](O)[C@@H](O)[C@H](OCCCCCCCCCCCCS)O[C@@H]2CO)[C@H](O)[C@@H](O)[C@H]1O (stereo not given in full) ?
Reply: 82.3 a.u.

Query: Fill blank: measured Activity of the molecule `CC(=O)N[C@H]1[C@@H](OCCCCCCCCCCCCS)O[C@H](CO)[C@@H](O[C@@H]2O[C@H](CO)[C@H](O)[C@H](O)[C@H]2O)[C@@H]1O` is ____.
Reply: 167 a.u.
